Molecular target: Enoyl-[acyl-carrier-protein] reductase [NADPH] FabI (Staphylococcus aureus (strain MRSA252), UniProt Q6GI75)
Sequence (Q6GI75 whole entry): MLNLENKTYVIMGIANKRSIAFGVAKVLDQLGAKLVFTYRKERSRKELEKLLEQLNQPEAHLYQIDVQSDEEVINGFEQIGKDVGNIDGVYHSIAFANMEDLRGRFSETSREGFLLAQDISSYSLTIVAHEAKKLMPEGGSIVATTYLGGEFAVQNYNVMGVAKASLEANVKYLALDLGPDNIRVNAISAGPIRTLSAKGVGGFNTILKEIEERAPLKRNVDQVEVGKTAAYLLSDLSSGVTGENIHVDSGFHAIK
Test: Enzyme Inhibition Assay
Conditions: pH 6.5; 30 °C
Experimental: Assays were carried out in half-area, 96-well microtiter plates. Compounds were evaluated in assay mixtures containing components specific for each enzyme. […] The consumption of NAD(P)H was monitored for 20 min at 30 °C by following the change in absorbance at 340 nm. IC50 values were estimated from a fit of the initial velocities to a standard equation.
The reader will find reported pIC50 values listed item by item below.
Reminder that pIC50 is minus the log10 of a molar concentration.

{"columns": ["SMILES REPR", "pIC50"],
 "data": [
  ["COC(=O)C[C@@H]1Nc2ccc(C(=O)N(C)Cc3cc4ccccc4n3C)cc2CN(C)C1=O", 3.17]
]}

Q: Using the record for CN(Cc1cc2ccccc2n1C)C(=O)/C=C/c1ccc(N)cc1 , report its pIC50.
Result: 4.95

----------
Collected IC50 values appear next to each entry.
Molecular target: Enoyl-[acyl-carrier-protein] reductase [NADH] FabI (Haemophilus influenzae (strain ATCC 51907 / DSM 11121 / KW20 / Rd))
Sequence (P44432 whole entry): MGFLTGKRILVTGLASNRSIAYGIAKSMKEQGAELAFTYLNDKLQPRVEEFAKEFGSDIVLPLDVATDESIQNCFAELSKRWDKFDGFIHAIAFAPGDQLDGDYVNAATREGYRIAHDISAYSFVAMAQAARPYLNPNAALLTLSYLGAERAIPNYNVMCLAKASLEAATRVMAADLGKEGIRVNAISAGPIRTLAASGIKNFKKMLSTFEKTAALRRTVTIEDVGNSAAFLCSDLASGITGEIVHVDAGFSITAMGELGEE
Assay: Enzyme Inhibition Assay
Conditions: 30 °C
Method: Assays were carried out in half-area, 96-well microtiter plates. Compounds were evaluated in assay mixtures containing components specific for each enzyme. […] The consumption of NAD(P)H was monitored for 20 min at 30 °C by following the change in absorbance at 340 nm. IC50 values were estimated from a fit of the initial velocities to a standard equation.

{"columns": ["SMILES REPR", "ENDPOINT LABEL", "READOUT VALUE"],
 "data": [
  ["CN(Cc1cc2ccccc2n1C)C(=O)c1ccccc1", "IC50", "> 100 µM"]
]}

Here is the next item to consider.
Q: Quick one: IC50 for COC(=O)C[C@@H]1Nc2ccc(C(=O)N(C)Cc3cc4ccccc4n3C)cc2CN(C)C1=O ?
Result: > 100 µM

Entry source: BindingDB's records for doi:10.1021/jm020050+
